Entry source: PubChem BioAssay (EPA / NIEHS)

Target: Heat shock factor protein 1 (Homo sapiens) (UniProt Q00613)
Sequence (Q00613 whole entry, looked up): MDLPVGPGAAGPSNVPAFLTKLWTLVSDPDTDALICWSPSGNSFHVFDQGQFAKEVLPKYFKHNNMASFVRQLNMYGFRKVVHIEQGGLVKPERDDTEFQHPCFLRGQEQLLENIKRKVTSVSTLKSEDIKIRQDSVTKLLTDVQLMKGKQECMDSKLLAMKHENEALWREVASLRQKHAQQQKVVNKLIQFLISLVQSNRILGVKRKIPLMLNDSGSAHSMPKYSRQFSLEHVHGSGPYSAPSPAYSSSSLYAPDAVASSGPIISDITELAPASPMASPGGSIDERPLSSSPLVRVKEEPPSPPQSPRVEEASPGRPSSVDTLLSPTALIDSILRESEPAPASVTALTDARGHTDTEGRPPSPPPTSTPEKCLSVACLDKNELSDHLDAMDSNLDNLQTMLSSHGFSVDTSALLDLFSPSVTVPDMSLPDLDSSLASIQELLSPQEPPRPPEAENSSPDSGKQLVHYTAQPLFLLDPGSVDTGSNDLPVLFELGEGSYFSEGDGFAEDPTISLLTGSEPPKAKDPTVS
Assay: ATG_HSE_CIS: Attagene CIS-FACTORIAL HepG2 Assay for human Heat Shock Transcription Factor 1 (HSE) (AID 2282953)
Conditions: HepG2 HSE cis-reporter, Attagene RNA transcription; actives raise or lower the signal
Calls of active or inactive are those of the source. How the source made its calls: active means hit-call score of the fitted dose curve at least 0.9, where 1 is the maximum; inactive means score below 0.9.
Please state which outcome applies, choosing from active, inactive

Nc1ccn([C@@H]2O[C@H](CO)[C@@H](O)C2O)c(=O)n1 (stereo partly drawn)    inactive
C=Cc1ccc(O)c(OC)c1    inactive
O=C1c2ccc(O)c(O)c2C(=O)c2c(O)ccc(O)c21    inactive
O=C(C=C(O)C(F)(F)F)C(F)(F)F    inactive
CC(C)(O)C(=O)c1ccccc1    inactive

Could you check what this test reported for `O=C1C=CC(=O)N1c1cccc(N2C(=O)C=CC2=O)c1` ?
inactive

Could you check what this test reported for `c1cc2cccc3c4cccc5cccc(c(c1)c23)c54` ?
inactive

Could you check what this test reported for `Oc1cc2ccccc2cc1O` ?
inactive

---

Experiment: ATG_TGFb_CIS: Attagene CIS-FACTORIAL HepG2 Assay for human Transforming Growth Factor (TGF) (AID 2282967)
Conditions: HepG2 Attagene CIS TGFb reporter, mRNA transcription; actives raise or lower the signal
The source made the active and inactive calls. Rule for the calls: active = hit-call score of the fitted dose curve at least 0.9, where 1 is the maximum; inactive = score below 0.9.
measuredEndpoint: AC50

Worked examples follow.
CCc1cccc(CC)c1NC(=O)C(=O)O    inactive
c1cnc2c(c1)ccc1cccnc12    inactive
C=CC(=O)OCC(CO)(COCC(COC(=O)C=C)(COC(=O)C=C)COC(=O)C=C)COC(=O)C=C    inactive
CCCCCCCCCCCC(=O)O    inactive
C=CC(C)(CCC=C(C)C)OC(C)=O (centres undefined)    inactive
Brc1ccc(Oc2ccc(Br)cc2Br)cc1    inactive

Below: the item to evaluate.
Field request: AC50 | item: `COc1cccc(O)c1`
inactive

---

Assay: ATG_Oct_MLP_CIS: Attagene CIS-FACTORIAL HepG2 Assay for human Octamer-Binding Transcription Factor (Oct) (AID 2282993)
Conditions: HepG2 Attagene cis-factorial Oct reporter, mRNA; actives raise or lower the signal
Active and inactive are the calls of the source. How the source made its calls: active means hit-call score of the fitted dose curve at least 0.9, where 1 is the maximum; inactive means score below 0.9.
Please state which outcome applies, choosing from active, inactive

C=COC(=O)C(C)(C)CCCCCC    inactive

Could you check what this test reported for CCO[Si](CCC1CCC2OC2C1)(OCC)OCC (centres undefined) ?
inactive

Could you check what this test reported for `CC(C)(c1ccc(Oc2ccc(N)cc2)cc1)c1ccc(Oc2ccc(N)cc2)cc1` ?
inactive

---

Target: Hypoxia-inducible factor 1-alpha (Homo sapiens)
Assay: ATG_HIF1a_CIS: Attagene CIS-FACTORIAL HepG2 Assay for human Hypoxia Inducible Factor 1 (HIF1A) (AID 2282951)
Conditions: HepG2 Attagene cis-factorial HIF1a reporter transcription; actives raise or lower the signal
The source made the active and inactive calls. How the source made its calls: active means hit-call score of the fitted dose curve at least 0.9, where 1 is the maximum; inactive means score below 0.9.
Please state which outcome applies, choosing from Yes (active), No (inactive)

O=CC(F)(F)C(F)(F)C(F)(F)C(F)F    No
Cc1cc(C(C)(C)C)c(O)c(C(C)(C)C)c1    No
COC(O)c1ccccc1 (stereo not drawn)    No
Nc1cc(Cl)c(-c2cc(Cl)c(N)cc2Cl)cc1Cl    No
C[N+](C)(CCCNS(=O)(=O)CCC(F)(F)C(F)(F)C(F)(F)C(F)(F)C(F)(F)C(F)(F)F)CC(=O)[O-]    No
O=C1NS(=O)(=O)c2ccccc21    No
CCOCCOCC    No
Cc1ccccc1OCC(=O)O    No
COC(=O)C(F)(F)C(F)(F)C(F)(F)C(F)(F)C(F)(F)F    No
C=COC(=O)C(C)(C)CCCCCC    Yes

Could you check what this test reported for `N=C(N)c1ccc(OCCCCCOc2ccc(C(=N)N)cc2)cc1` ?
Yes

Could you check what this test reported for `CC(C)(C)c1ccc(CCC=O)cc1` ?
No

Could you check what this test reported for `O=C1OC(=O)c2cc(-c3ccc4c(c3)C(=O)OC4=O)ccc21` ?
No

---

Target: human Adenosine A1 Receptor (AdoRA1), ADORA1 (gene 134)
Assay: NVS_GPCR_hAdoRA1: NovaScreen (NVS) G Protein-Coupled Receptor Assay for human Adenosine A1 Receptor (AdoRA1) (AID 2283254)
Records with an inconclusive call do not appear. The source made the active and inactive calls. The calls were made as follows: active = hit-call score of the fitted dose curve at least 0.9, where 1 is the maximum; inconclusive = response in the unintended direction; inactive = score below 0.9.
Please state which outcome applies, choosing from T (active), F (inactive)

Cc1[nH]nc2c1N=C(c1ccccc1Cl)c1cc([N+](=O)[O-])ccc1N2    F
CS(=O)(=O)c1ccc([C@@H](CC2CCCC2)C(=O)Nc2cnccn2)cc1Cl    F
O=C1OC2(c3ccccc31)c1cc(I)c(O)c(I)c1Oc1c2cc(I)c(O)c1I    T

Now, please, on to the next compound.
Could you check what this test reported for `CN(Cc1cnc2nc(N)nc(N)c2n1)c1ccc(C(=O)N[C@@H](CCC(=O)O)C(=O)O)cc1` ?
F

---

Read-out: Cyclin D1 (CCND1), CCND1 (gene 595)
Experiment: LTEA_HepaRG_CCND1: Life Technologies and Expression Analysis (LTEA) Assay for Cyclin D1 (CCND1) using HepaRG (AID 2283451)
Conditions: mRNA level, 48 h; actives raise or lower the signal
Calls of active or inactive are those of the source. Rule for the calls: active = hit-call score of the fitted dose curve at least 0.9, where 1 is the maximum; inactive = score below 0.9.
Please state which outcome applies, choosing from 1.0 for active, 0.0 for inactive

Sample answers from the record:
O=C(CCCN1CCC(O)(c2ccc(Cl)cc2)CC1)c1ccc(F)cc1    0.0
N=C(N)c1ccc(OCCCCCOc2ccc(C(=N)N)cc2)cc1    0.0
CCCCC=O    0.0
Cc1[nH]nc2c1N=C(c1ccccc1Cl)c1cc([N+](=O)[O-])ccc1N2    1.0
OCC(CO)(CBr)CBr    0.0

Could you check what this test reported for `CCCCc1oc2ccccc2c1C(=O)c1cc(I)c(OCCN(CC)CC)c(I)c1` ?
0.0

Could you check what this test reported for `CN(Cc1cnc2nc(N)nc(N)c2n1)c1ccc(C(=O)N[C@@H](CCC(=O)O)C(=O)O)cc1` ?
0.0

Could you check what this test reported for `O=C1NS(=O)(=O)c2ccccc21` ?
0.0

---

Test: CCTE_Shafer_MEA_acute_burst_percentage_mean: CCTE's Neural Acute Assay for Percentage of Spikes in a Burst, Shafer Lab (AID 2284017)
Protocol: CCTE_Shafer_MEA_acute assay is conducted using Axion Biosystems 48 well microelectrode array (MEA) plates and Maestro recording system. Each well of the MEA plate contains a grid of 16 microelectrodes embedded in the culture surface. Electrically active cells, such as neurons, can be cultured over the electrodes, and electrical activity in these cells can be recorded extracellularly. […] The average of the burst percentages across electrodes is calculated to report a well-level value. […]
The source made the active and inactive calls. The calls were made as follows: active = hit-call score of the fitted dose curve at least 0.9, where 1 is the maximum; inactive = score below 0.9.
Please state which outcome applies, choosing from true (active), false (inactive)

Sample answers from the record:
CCCCCCCCCCCC    false
CCCCC=O    false

Could you check what this test reported for `OCC(CO)(CBr)CBr` ?
false

Could you check what this test reported for `CN(C)CCOC(c1ccccc1)c1ccccc1` ?
true

Could you check what this test reported for `Oc1c(Cl)cc(Cl)cc1Sc1cc(Cl)cc(Cl)c1O` ?
true

Could you check what this test reported for `O=C(CCCN1CCC(O)(c2ccc(Cl)cc2)CC1)c1ccc(F)cc1` ?
false

Could you check what this test reported for `Oc1ccc(Cc2ccccc2O)cc1` ?
false

Could you check what this test reported for CCC(C)c1ccccc1O (stereo not drawn) ?
true

---

Read-out: Monokine induced gamma interferon (MIG), CXCL9 (gene 4283)
Test: BSK_3C_MIG: BioMAP Diversity Plus: 3C Assay for Monokine induced gamma interferon (MIG) Biomarker Activity (AID 2283021)
Conditions: primary human endothelial cells (HUVEC); actives raise or lower the signal
The source made the active and inactive calls. How the source made its calls: active means hit-call score of the fitted dose curve at least 0.9, where 1 is the maximum; inactive means score below 0.9.
Please state which outcome applies, choosing from yes = active, no = inactive

CC1=NN(c2ccccc2)C(=O)C1    no

Could you check what this test reported for CCC(C)c1ccccc1O (centres undefined) ?
no

Could you check what this test reported for `CCOC(=O)CN[C@@H](C(=O)N1CC[C@H]1C(=O)NCc1ccc(/C(N)=N/O)cc1)C1CCCCC1` ?
no

Could you check what this test reported for `CCCCc1oc2ccccc2c1C(=O)c1cc(I)c(OCCN(CC)CC)c(I)c1` ?
yes

Could you check what this test reported for `C=CC(=C)CC/C=C(\C)CCC=C(C)C` ?
no

Could you check what this test reported for C=CC(C)(CCC=C(C)C)OC(C)=O (centres undefined) ?
no

Could you check what this test reported for `CCCCC=O` ?
no

---

Read-out: Cytochrome P450 2C19 (Homo sapiens) (UniProt P33261)
Sequence (P33261 whole entry, looked up): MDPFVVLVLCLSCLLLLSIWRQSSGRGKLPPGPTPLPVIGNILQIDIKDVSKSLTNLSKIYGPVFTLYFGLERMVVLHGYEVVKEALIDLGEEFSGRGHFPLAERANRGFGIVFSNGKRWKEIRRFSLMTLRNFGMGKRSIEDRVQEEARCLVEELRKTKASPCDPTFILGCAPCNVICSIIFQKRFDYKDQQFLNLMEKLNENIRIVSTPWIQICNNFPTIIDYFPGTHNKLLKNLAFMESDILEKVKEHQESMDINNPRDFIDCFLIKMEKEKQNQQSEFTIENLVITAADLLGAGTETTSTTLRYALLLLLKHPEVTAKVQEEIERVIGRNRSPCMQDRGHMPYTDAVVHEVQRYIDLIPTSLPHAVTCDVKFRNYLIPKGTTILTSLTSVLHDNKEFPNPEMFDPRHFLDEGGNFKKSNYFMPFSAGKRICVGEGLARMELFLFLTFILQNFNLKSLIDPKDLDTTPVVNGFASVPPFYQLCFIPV
Assay: LTEA_HepaRG_CYP2C19: Life Technologies and Expression Analysis (LTEA) Assay for CYP2C19 using HepaRG (AID 2283482)
Conditions: mRNA level, 48 h; actives raise or lower the signal
Experimental: LTEA_HepaRG is a cell based, multiplexed-readout assay that uses HepaRG, a human liver cell line, with measurements taken at 48 hours after chemical dosing on a 96-well plate.LTEA_HepaRG_CYP2C19 is one of 102 assay component(s) measured in the LTEA HepaRG cell culture assay. It is a marker of NR mediated metabolism.Data from the assay component LTEA_HepaRG_CYP2C19 was analyzed into 1 endpoint. […]
The source made the active and inactive calls. The calls were made as follows: active = hit-call score of the fitted dose curve at least 0.9, where 1 is the maximum; inactive = score below 0.9.
Please state which outcome applies, choosing from active, inactive

CCCCCCCCCCCCCCC    active

Now, please, on to the next compound.
Could you check what this test reported for `CC(=O)Nc1ccc(O)cc1` ?
inactive
